Target: DNA topoisomerase 1 (Homo sapiens)
Sequence (whole entry): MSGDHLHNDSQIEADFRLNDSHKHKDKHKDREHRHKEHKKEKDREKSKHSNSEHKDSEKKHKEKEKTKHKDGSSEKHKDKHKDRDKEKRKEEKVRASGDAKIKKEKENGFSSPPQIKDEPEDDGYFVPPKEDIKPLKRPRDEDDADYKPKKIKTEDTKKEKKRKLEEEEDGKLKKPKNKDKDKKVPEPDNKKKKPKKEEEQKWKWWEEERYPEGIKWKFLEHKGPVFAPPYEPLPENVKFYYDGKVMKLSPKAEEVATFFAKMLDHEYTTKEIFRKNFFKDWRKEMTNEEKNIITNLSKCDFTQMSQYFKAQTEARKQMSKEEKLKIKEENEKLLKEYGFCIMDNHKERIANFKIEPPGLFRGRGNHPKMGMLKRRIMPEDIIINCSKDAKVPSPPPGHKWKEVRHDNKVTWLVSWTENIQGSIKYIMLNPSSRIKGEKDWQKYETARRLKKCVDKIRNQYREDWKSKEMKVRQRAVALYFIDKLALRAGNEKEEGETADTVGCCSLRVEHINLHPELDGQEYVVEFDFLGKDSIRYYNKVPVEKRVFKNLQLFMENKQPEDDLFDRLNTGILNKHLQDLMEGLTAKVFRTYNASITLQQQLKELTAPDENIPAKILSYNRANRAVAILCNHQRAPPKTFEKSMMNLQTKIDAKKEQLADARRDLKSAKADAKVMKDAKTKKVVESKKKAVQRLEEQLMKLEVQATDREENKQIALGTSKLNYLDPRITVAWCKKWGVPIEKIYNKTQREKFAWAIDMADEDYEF
Assay: Inhibition of human DNA topoisomerase 1 assessed as intercalate into DNA at 312 uM
Calls of active or inactive are those of the source. No cut-off for these calls is given here.
Readout Type: Activity

>>> measured_value("C/C=C(/C)C(=O)O[C@H]1[C@H](O)[C@]2(CO)[C@H](O)C[C@]3(C)C(=CC[C@@H]4[C@@]5(C)CC[C@H](O[C@@H]6O[C@H](C(=O)O)[C@@H](O)[C@H](O[C@@H]7O[C@@H](CO)[C@H](O)[C@H]7O)[C@H]6O)[C@](C)(CO)[C@@H]5CC[C@]43C)[C@@H]2CC1(C)C [AESCULIOSIDE IID]")
"Active"
>>> measured_value("C/C=C(/C)C(=O)O[C@H]1[C@H](O)[C@]2(CO)[C@H](O)C[C@]3(C)C(=CC[C@@H]4[C@@]5(C)CC[C@H](O[C@@H]6O[C@H](C(=O)O)[C@@H](O)[C@H](O[C@@H]7O[C@@H](CO)[C@H](O)[C@H]7O)[C@H]6O[C@@H]6O[C@H](CO)[C@H](O)[C@H](O)[C@H]6O)C(C)(C)[C@@H]5CC[C@]43C)[C@@H]2CC1(C)C [AESCULIOSIDE IIC]")
"Active"

---

Target: DNA topoisomerase 2-alpha (Homo sapiens, UniProt P11388)
Sequence (P11388 whole entry): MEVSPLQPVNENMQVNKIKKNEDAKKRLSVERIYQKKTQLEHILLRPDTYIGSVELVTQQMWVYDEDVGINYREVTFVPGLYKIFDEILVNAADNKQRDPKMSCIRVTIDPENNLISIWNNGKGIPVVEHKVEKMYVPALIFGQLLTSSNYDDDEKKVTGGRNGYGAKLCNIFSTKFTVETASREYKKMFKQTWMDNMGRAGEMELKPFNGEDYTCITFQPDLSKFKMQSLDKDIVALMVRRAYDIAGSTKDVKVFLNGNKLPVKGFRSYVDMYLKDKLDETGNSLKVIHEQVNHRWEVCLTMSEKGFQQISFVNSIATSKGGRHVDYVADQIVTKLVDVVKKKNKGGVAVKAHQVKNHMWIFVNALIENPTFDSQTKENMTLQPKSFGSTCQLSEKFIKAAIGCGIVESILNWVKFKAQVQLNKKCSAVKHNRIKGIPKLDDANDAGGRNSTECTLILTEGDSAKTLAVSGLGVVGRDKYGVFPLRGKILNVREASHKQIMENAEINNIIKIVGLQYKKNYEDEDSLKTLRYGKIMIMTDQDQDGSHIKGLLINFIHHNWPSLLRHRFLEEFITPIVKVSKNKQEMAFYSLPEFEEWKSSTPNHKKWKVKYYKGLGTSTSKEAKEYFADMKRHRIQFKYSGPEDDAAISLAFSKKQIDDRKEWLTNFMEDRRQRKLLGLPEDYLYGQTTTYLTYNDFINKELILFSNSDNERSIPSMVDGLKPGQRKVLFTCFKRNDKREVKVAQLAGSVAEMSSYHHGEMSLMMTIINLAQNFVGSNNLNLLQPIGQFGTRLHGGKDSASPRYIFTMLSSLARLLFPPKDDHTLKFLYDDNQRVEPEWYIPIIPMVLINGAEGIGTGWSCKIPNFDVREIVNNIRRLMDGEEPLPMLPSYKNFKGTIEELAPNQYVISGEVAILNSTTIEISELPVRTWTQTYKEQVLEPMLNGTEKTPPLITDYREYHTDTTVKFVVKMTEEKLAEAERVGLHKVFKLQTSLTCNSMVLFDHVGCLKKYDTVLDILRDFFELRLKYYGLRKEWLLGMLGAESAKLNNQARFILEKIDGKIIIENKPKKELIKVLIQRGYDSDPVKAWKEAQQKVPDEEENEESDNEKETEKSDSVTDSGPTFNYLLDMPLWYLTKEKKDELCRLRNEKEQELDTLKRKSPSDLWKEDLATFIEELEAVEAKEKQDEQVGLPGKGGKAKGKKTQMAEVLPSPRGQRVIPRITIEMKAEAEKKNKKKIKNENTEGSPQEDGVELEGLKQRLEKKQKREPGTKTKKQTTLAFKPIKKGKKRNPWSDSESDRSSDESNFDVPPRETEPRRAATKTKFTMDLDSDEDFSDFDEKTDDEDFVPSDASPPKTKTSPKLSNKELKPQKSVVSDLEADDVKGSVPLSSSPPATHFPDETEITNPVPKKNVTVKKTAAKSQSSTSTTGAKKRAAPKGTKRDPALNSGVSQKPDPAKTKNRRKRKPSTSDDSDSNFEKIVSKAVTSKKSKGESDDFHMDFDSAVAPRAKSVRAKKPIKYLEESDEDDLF
Readout Type: IC50

Any idea what IC50 was measured for C/C=C(/C)C(=O)O[C@H]1[C@H](OC(=O)/C(C)=C/C)C(C)(C)C[C@H]2C3=CC[C@@H]4[C@@]5(C)CC[C@H](O[C@@H]6O[C@H](C(=O)O)[C@@H](O)[C@H](O[C@@H]7O[C@@H](CO)[C@H](O)[C@H]7O)[C@H]6O[C@@H]6O[C@H](CO)[C@@H](O)[C@H](O)[C@H]6O)[C@](C)(CO)[C@@H]5CC[C@@]4(C)[C@]3(C)[C@@H](O)[C@@H](O)[C@]21CO [AESCULIOSIDE IIIE] ? > 250 µM
